- targetOrTestSystem: Corticotropin-releasing factor receptor 2/Corticotropin-releasing factor-binding protein (Homo sapiens, UniProt P24387+Q13324)
- Sequence (Q13324 whole entry): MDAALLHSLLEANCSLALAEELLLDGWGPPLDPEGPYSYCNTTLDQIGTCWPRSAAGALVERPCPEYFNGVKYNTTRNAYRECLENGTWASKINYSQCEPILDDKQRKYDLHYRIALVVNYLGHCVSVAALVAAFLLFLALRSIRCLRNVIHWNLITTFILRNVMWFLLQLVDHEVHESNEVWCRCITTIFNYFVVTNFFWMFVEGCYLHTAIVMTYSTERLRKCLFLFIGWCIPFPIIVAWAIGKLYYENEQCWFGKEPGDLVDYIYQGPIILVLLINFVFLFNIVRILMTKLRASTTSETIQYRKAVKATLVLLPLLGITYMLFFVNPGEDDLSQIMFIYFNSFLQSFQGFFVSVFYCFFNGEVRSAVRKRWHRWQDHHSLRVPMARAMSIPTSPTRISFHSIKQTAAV
- Sequence (P24387 whole entry): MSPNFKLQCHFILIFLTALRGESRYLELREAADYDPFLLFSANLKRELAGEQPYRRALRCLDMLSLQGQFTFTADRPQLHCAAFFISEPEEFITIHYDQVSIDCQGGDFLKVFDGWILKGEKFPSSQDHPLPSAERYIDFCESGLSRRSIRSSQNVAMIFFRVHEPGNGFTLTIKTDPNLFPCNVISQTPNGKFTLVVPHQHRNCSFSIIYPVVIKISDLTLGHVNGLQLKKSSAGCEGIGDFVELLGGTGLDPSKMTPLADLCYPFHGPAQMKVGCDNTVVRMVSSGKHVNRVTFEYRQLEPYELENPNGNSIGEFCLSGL
- experimentalProtocol: Dose Response confirmation of uHTS hits for small molecule antagonists of the CRF-binding protein and CRF-R2 receptor complex.
- Assay type: functional
- experimentalContext: read-out: IC50_Mean
Calls of active or inactive are those of the source. Rule as the data show it: actives have a measured IC50 and inactives only a lower limit.
Would you mind answering with one of these outcomes? TRUE (active), FALSE (inactive)

Inquiry: Can you look up the reported call for COc1cc(CCC(=O)NC2(C)CCS(=O)(=O)C2)cc(OC)c1OC (stereo not drawn) for me?
Reply text: FALSE

Inquiry: Entry COCCn1c(SCC(=O)c2ccc3c(c2)OCCO3)nnc1-c1ccco1 : call = ?
Reply text: FALSE

Inquiry: Tell me the recorded outcome of this test for COc1ccc(NC(=O)CSc2nnc(N)s2)c([N+](=O)[O-])c1 .
Reply text: FALSE

Inquiry: Kindly provide the recorded test outcome for the following compound: CCN1CCN(C(=O)C2=CC(c3ccc(OC)cc3)=NS(=O)(=O)N2C)CC1
Reply text: FALSE

Inquiry: Name the outcome recorded for COc1ccc(S(=O)(=O)N2CCOCC2)cc1NC(=O)CC1CC2CCC1C2 (stereo not drawn) in the assay.
Reply text: FALSE

Inquiry: Per the assay record, what outcome was assigned to O=C(C/C=N\OCc1ccc([N+](=O)[O-])cc1)Nc1ccc(Br)cc1 ?
Reply text: FALSE

Inquiry: Kindly provide the recorded test outcome for the following compound: CCC(C)c1ccc(NC(=S)Nc2ccc(OC)cc2)cc1 (stereo not drawn)
Reply text: FALSE

Inquiry: What outcome does the record of this test show for Cc1ccc(NC(=O)c2cc(NC(=O)/C=C\C(=O)O)ccc2N2CCCCC2)cc1 ?
Reply text: FALSE

Inquiry: Identify the outcome logged in this assay for the compound shown: Cc1ccc(S(=O)(=O)NC2=NC(=O)/C(=C/c3ccccc3)S2)cc1
Reply text: TRUE

Inquiry: Tell me the recorded outcome of this test for COc1cccc(CNC(=O)C2CCC(=O)N(CC3CCCCC3)C2)c1OC (stereo not drawn) .
Reply text: FALSE

Inquiry: Recorded call for O=C(COC(=O)C1(c2ccc(F)cc2)CCCC1)NCc1ccc2c(c1)OCO2 ?
Reply text: TRUE

Inquiry: Hi team, can someone confirm the assay call for COc1ccc2ccccc2c1CNCCCN1CCOCC1 ?
Reply text: FALSE

Inquiry: What outcome does the record of this test show for NC(Cc1ccccc1Sc1ccccc1)=NO ?
Reply text: FALSE

Cited source for all entries: ChEMBL document CHEMBL1201862
